test: BSK_SAg_Proliferation: Cell Proliferation Assessment in the BioMAP Diversity Plus: SAg Assay (AID 2283095); details: primary human HUVEC with PBMC;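 note: relative cell number as total protein by SRB absorbance in sub-confluent culture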
The source made the active and inactive calls. Rule for the calls: active = hit-call score of the fitted dose curve at least 0.9, where 1 is the maximum; inactive = score below 0.9.
Your reply should match one of these outcome classes. active, inactive

>>> classification("CCCCCCCCC(=O)O")
"inactive"

Exam item: Record lookup: outcome of this test for COC(=O)CCCCC(=O)OC ?
Marked response: inactive

Exam item: Record lookup: outcome of this test for CCCOc1sc(C(=O)N2CCC(c3cc(CN)ccc3F)CC2)c(C)c1Br ?
Marked response: active

Exam item: Record lookup: outcome of this test for CCC(=C(c1ccc(O)cc1)c1ccc(OCCN(C)C)cc1)c1ccccc1 ?
Marked response: active

Exam item: Record lookup: outcome of this test for CC(C)(C)CC(C)(C)c1ccc(O)c(-n2nc3ccccc3n2)c1 ?
Marked response: inactive

Exam item: Record lookup: outcome of this test for Cc1cc(CCN2CCN(c3nsc4ccccc34)CC2)cc2c1NC(=O)CC2(C)C ?
Marked response: active

FYI, the data here is from PubChem BioAssay (EPA / NIEHS).
